Overview of reported koff across a group of binders:
- Target under test: T1, human interleukin 12 (p70 heterodimer of p35 and p40) (human, UniProt P29459 23-219; P29460 23-328)
- T1 construct: Recombinant human IL-12; also called hIL-12; IL-12
- T1 sequence (looked up) 1: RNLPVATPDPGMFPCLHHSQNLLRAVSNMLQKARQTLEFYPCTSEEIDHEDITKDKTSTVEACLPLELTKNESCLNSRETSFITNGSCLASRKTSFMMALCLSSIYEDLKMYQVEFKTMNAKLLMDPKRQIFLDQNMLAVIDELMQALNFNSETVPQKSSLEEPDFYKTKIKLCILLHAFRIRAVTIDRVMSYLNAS
- T1 sequence (looked up) 2: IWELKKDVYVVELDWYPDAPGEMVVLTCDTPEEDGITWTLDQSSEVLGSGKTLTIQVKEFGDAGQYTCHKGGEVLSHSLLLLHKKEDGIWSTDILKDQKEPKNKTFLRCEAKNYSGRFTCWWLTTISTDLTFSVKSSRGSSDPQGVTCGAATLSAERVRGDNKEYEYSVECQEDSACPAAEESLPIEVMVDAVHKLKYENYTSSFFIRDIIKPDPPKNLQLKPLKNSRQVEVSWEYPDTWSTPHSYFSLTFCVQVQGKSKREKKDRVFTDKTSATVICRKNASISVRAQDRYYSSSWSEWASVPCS
- Experiment description: SPR (BIAcore), off-rate
// units = s⁻¹; emit number, no label

SEQ ID NO: 519 (Y61, V at L50) (antibody, V domains shown) VH: QVQLVQSGGGVVQPGRSLRLSCAASGFTFSSYGMHWVRQAPGKGLEWVAFIRYDGSNKYYADSVKGRFTISRDNSKNTLYLQMKSLRAEDTAVYYCKTHGSHDNWGQGTMVTVSS VL: SYVLTQPPSVSGTPGQRVTISCSGGRSNIGSNTVKWYQQLPGTAPKLLIYVNDQRPSGVPDRFSGSKSGTSASLAITGVQAEDEADYYCQSYDRGTHPALLFGTGTKVTVLG
0.000385
SEQ ID NO: 525 (Y61, F at L50) (antibody, V domains shown) VH: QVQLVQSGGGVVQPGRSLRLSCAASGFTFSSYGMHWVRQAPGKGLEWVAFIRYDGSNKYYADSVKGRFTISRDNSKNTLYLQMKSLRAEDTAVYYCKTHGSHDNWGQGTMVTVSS VL: SYVLTQPPSVSGTPGQRVTISCSGGRSNIGSNTVKWYQQLPGTAPKLLIYFNDQRPSGVPDRFSGSKSGTSASLAITGVQAEDEADYYCQSYDRGTHPALLFGTGTKVTVLG
0.0348

For the binder shown here, SEQ ID NO: 522 (Y61, I at L50) (antibody, V domains shown) VH: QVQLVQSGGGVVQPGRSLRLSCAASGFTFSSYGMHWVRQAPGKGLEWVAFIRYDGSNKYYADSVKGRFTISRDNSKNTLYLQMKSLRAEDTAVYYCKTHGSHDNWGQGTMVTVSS VL: SYVLTQPPSVSGTPGQRVTISCSGGRSNIGSNTVKWYQQLPGTAPKLLIYINDQRPSGVPDRFSGSKSGTSASLAITGVQAEDEADYYCQSYDRGTHPALLFGTGTKVTVLG , give the reported koff.
0.0012

Look up koff: SEQ ID NO: 513 (Y61, R at L50) (antibody, V domains shown) VH: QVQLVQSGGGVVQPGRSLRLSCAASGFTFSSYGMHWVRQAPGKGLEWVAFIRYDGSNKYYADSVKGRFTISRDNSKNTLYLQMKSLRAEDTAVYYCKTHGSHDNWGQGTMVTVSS VL: SYVLTQPPSVSGTPGQRVTISCSGGRSNIGSNTVKWYQQLPGTAPKLLIYRNDQRPSGVPDRFSGSKSGTSASLAITGVQAEDEADYYCQSYDRGTHPALLFGTGTKVTVLG
0.000444

Which value of koff has been reported for SEQ ID NO: 526 (Y61, S at L53) (antibody, V domains shown) VH: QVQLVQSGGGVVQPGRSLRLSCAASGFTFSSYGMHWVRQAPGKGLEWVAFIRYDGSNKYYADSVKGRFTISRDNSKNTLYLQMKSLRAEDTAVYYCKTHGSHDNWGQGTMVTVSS VL: SYVLTQPPSVSGTPGQRVTISCSGGRSNIGSNTVKWYQQLPGTAPKLLIYGNDSRPSGVPDRFSGSKSGTSASLAITGVQAEDEADYYCQSYDRGTHPALLFGTGTKVTVLG in the records?
0.000866

Entry SEQ ID NO: 516 (Y61, T at L50) (antibody, V domains shown) VH: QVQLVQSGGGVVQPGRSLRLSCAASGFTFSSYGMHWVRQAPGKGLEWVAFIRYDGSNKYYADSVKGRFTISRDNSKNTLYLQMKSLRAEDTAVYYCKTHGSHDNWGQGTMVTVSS VL: SYVLTQPPSVSGTPGQRVTISCSGGRSNIGSNTVKWYQQLPGTAPKLLIYTNDQRPSGVPDRFSGSKSGTSASLAITGVQAEDEADYYCQSYDRGTHPALLFGTGTKVTVLG has what koff?
0.000272
